tested on: IGROV-1; assay: NCI tumour cell line growth inhibition, 48 h
Calls of active or inactive are those of the source. Cut-off read from the data, not from the text of the source: active = GI50 up to about 1.1 µM and inactive = higher.
Listing of entries alongside the reported GI50.
QUANTITY KIND: GI50

| COMPOUND | VAL |
| --- | --- |
| Nc1ncnc2c1ncn2C1OC(CSC(F)(F)F)C(O)C1O (stereo unspecified) | > 100 µM (inactive) |
| NCCCN(CCCCN(CCCN)Cc1ccc2ccccc2c1)Cc1ccc2ccccc2c1 | 1.82 µM (inactive) |
| N#CC(C(=N/O)/C(=N\O)C(C#N)c1ccccc1)c1ccccc1 (stereo unspecified) | > 100 µM (inactive) |
| O=C(NC(=S)Nc1ccc(Br)cc1)c1ccc2c(c1)Sc1ccccc1O2 | 49.3 µM (inactive) |
| c1ccc(NCn2cnc3ccccc32)cc1 | > 100 µM (inactive) |
| CC1=NN(c2cccc(Cl)c2)C2(SCC(=O)N2c2nc3ccccc3s2)C1=CC=Cc1ccccc1 (stereo unspecified) | 31.3 µM (inactive) |

---

test system: EKVX; assay: NCI tumour cell line growth inhibition, 48 h
The source made the active and inactive calls. Cut-off read from the data, not from the text of the source: active = GI50 up to about 1.1 µM and inactive = higher.
Possible outcomes: active, inactive

| COMPOUND | STUDY SYSTEM | GROUP |
| --- | --- | --- |
| O=CC(NC(=O)N(CCCl)N=O)C(O)C(O)C(O)CO (stereo not drawn) | EKVX | inactive |
| COc1ccc(C2=NNC(=O)OC2c2ccccc2)cc1 (stereo not drawn) | EKVX | inactive |
| OC(COc1cccc2ccccc12)CN1CCOCC1 (stereo not drawn) | EKVX | inactive |
| CCCCCCCC(CC(=O)NC(CO)C(=O)NC(CO)CC(C)C)OC(=O)CC(CCCCCCC)OC(=O)CC(CCCCCCC)OC1OC(C)C(O)C(OC2OC(C)C(OC(C)=O)C(O)C2O)C1O (stereo not drawn) | EKVX | inactive |
| O=c1c(-c2ccccc2)c(SCCN2CCOCC2)n(-c2ccccc2)c(=S)n1-c1ccccc1 | EKVX | inactive |
| Cc1cc2c(c(C(=O)O)c1C)-c1cccc(F)c1C2=O | EKVX | inactive |
| Cc1ccc(S(=O)(=O)c2ccccc2[N+](=O)[O-])cc1 | EKVX | inactive |
| COc1cccc(-c2cccc(SC)n2)n1 | EKVX | inactive |
| Cc1nc2ccc(F)cc2c(Cl)c1CCCl | EKVX | inactive |
| O=C(Nc1nc(C23CC4CC(CC(C4)C2)C3)cs1)c1c(O)c2ccccc2[nH]c1=O | EKVX | inactive |
| CC(=O)c1ccccc1NP(=O)(c1ccccc1)c1ccccc1 | EKVX | inactive |
| CC1(C)NC(C(=O)c2ccccc2)=[N+]([O-])C1(O)c1ccccc1 (stereo not drawn) | EKVX | inactive |
| C=CCO/N=C/c1cc(/N=C(/S)c2ccoc2C)ccc1Cl | EKVX | inactive |
| Fc1ccc2c(c1)SC1Oc3ccccc3-c3c1c-2nn3-c1ccccc1 (stereo not drawn) | EKVX | inactive |
| NC1C[C@H](n2cc(/C=C/Br)c(=O)[nH]c2=O)C[C@@H]1CO (stereo partly drawn) | EKVX | inactive |
| NCCCN(CCCCN(CCCN)Cc1ccc2ccccc2c1)Cc1ccc2ccccc2c1 | EKVX | inactive |
| O=[As](O)(O)c1ccc(/N=N/c2ccc([As](=O)(O)O)cc2)cc1 | EKVX | inactive |
| Cc1cccc(Nc2cnc(N)nc2N)c1 | EKVX | inactive |
| CC[C@H](C)[C@H]1NC(=O)[C@@H](NC(=O)[C@@H](CC(C)C)N(C)C(=O)C2CCCN2C(=O)[C@H](C)O)[C@@H](C)OC(=O)[C@@H]2Cc3ccccc3CN2C(=O)[C@@H]2CCCN2C(=O)[C@H](CC(C)C)NC(=O)[C@@H](C)C(=O)[C@H](C(C)C)OC(=O)C[C@@H]1O (stereo partly drawn) | EKVX | inactive |
| CCOC(=O)c1cc(C2CCN(Cc3ccccc3)C2=O)c(C(=O)C(=[N+]=[N-])C(C)=O)[nH]1 (stereo not drawn) | EKVX | inactive |
| CCCCNC(=O)c1cc(S(=O)(=O)n2ccnc2O)c(SC)cc1Cl | EKVX | inactive |
| Cc1cc2c(C=O)n[nH]c2c(C#N)c1C | EKVX | inactive |
| N/C(S)=N/N=C/c1cc(CN2CCOCC2)c(N)cn1 | EKVX | inactive |
| COC1(OC)c2no[n+]([O-])c2CCC1O (stereo not drawn) | EKVX | inactive |
| O=C1c2cccc(O)c2C(=O)c2c(O)cccc21 | EKVX | inactive |
| CCCCCCCCCCCCCC(=O)O[C@H]1CC[C@H](NC(=O)[C@H](OC)[C@H](O)[C@@H](O)[C@H](O)/C=C/C(C)C)C(=O)N(C)C1 [BENGAMIDE B] | EKVX | active |
| COc1c(Sc2ccccc2)cc(Sc2ccccc2)c2cccnc12 | EKVX | inactive |
| C/C(=C\Cc1cc(O)ccc1O)CCc1c(C)c(O)c(O)c(C=O)c1C | EKVX | inactive |
| CCOC(=O)C1C(=O)CC(C)(O)C(C(=O)OCC)C1c1ccc(N(C)C)cc1 (stereo not drawn) | EKVX | inactive |
| CCc1nnc2sc(-c3ccc(-c4ccc(Cl)cc4Cl)o3)nn12 | EKVX | inactive |
| COc1c(O)cc2c3c(ccnc13)NC=C2 | EKVX | inactive |
| Nc1ncnc2c1N=CN(Oc1ccccc1)N2 | EKVX | inactive |
| CS(C)(=O)=Nn1c(=O)n2n(c1=O)C1c3ccccc3C2c2ccccc21 | EKVX | inactive |
| COC(=O)[C@@](C)(COC(=O)C(C)(C)C)NC(=O)OC(C)(C)C | EKVX | inactive |
| Cc1cc2c(cc1C)NC1=C(O)C(c3c[nH]c4ccc(COc5ccccc5)cc34)OC1=N2 (stereo not drawn) | EKVX | inactive |
| COc1ccc(C2NC(=S)Nc3c2c(=O)oc2c3ccc3ccccc32)cc1 (stereo not drawn) | EKVX | inactive |
| CC1=NNC(=O)C1C1C=C(c2c[nH]c3ccccc23)OC1=O (stereo not drawn) | EKVX | inactive |
| NC1CC(=O)c2c1sc(Cl)c2Cl (stereo not drawn) | EKVX | inactive |
| Cc1[nH]c2ccccc2c1C1Cc2ccccc2N1C(=O)/C=C/C=C/c1ccccc1 (stereo not drawn) | EKVX | inactive |
| OCc1ccccc1O[C@H]1O[C@H](CO)[C@@H](O)[C@H](O)[C@H]1O | EKVX | inactive |
| NC(CC(O)(c1ccccc1)c1ccccc1)c1ccccc1S (stereo not drawn) | EKVX | inactive |
| C[N+](C)(C)CCOC(=O)/C=C/c1c[nH]cn1 | EKVX | inactive |
| O=C1c2ccccc2-c2nc(-c3cccs3)cc3c2c1nc1ccccc13 | EKVX | inactive |
